- Test system: PC-3
- test_summary: Growth inhibition of human PC3 cells at 10 uM after 48 hrs by MTS assay
- Assay type: functional
- details: PC-3, 48 h, read-out: GI
Quick reference for inhibition of growth at 10 µM among some compounds
Your answer is read as %, so omit the unit and give the number.

Worked cases, answers included:
# compound, measured_quantity, result_number
data = [
    ("CC(O)CNC1=CC(=O)C(SC/C=C/c2ccccc2)=CC1=O (stereo unspecified)", "inhibition of growth at 10 µM", 3.75),
    ("C=C(Cl)CSC1=CC(=O)C(NCC(C)O)=CC1=O (stereo unspecified)", "inhibition of growth at 10 µM", 20),
    ("COc1ccccc1/C=C/CSC1=CC(=O)C(NCC(C)O)=CC1=O (stereo unspecified)", "inhibition of growth at 10 µM", 5.9),
    ("C=C(CSC1=CC(=O)C(NCC(C)O)=CC1=O)c1ccccc1 (stereo unspecified)", "inhibition of growth at 10 µM", 11.8),
    ("CC(O)CNC1=CC(=O)C(SC/C=C/c2ccc(F)cc2)=CC1=O (stereo unspecified)", "inhibition of growth at 10 µM", 12.2),
]

Now for another entry.
Per the records, this compound ( CC(O)CNC1=CC(=O)C(SC2C=CCCC2)=CC1=O (stereo unspecified) ) has inhibition of growth at 10 µM equal to 46.9

====

- Tested on: PC-3
- test_summary: Growth inhibition of human PC3 cells at 10 uM after 48 hrs by MTS assay
- Assay type: functional
- details: PC-3, 48 h, read-out: GI
Quick reference for inhibition of growth at 10 µM among some compounds
Your answer is read as %, so omit the unit and give the number.

Worked cases, answers included:
# compound, result_number
data = [
    ("CC(O)CNC1=CC(=O)C(SC/C=C/c2cccnc2)=CC1=O (centres undefined)", 9.45),
    ("C/C=C/CSC1=CC(=O)C(NCC(C)O)=CC1=O (centres undefined)", 67.6),
    ("C=C(C)CSC1=CC(=O)C(NCC(C)O)=CC1=O (centres undefined)", 61.9),
]

GET /values?item= C=CCSC1=CC(=O)C(NCC(C)O)=CC1=O (centres undefined) &system= PC-3 returns inhibition of growth at 10 µM: 88

====

- System: PC-3
- test_summary: Antiproliferative activity against human PC3 cells after 48 hrs by MTS assay
- Type: functional, cell-based
- details: PC-3, 48 h
Quick reference for pIC50 among some molecules
Please note pIC50 is a logarithmic value: minus log10 of concentration in mol/L. Answer with that number alone.

Worked cases, answers included:
# molecule, pIC50
measured = [
    ("C=CCSC1=CC(=O)C(NCCCl)=CC1=O", 6.22),
    ("C=CCSC1=CC(=O)C(N[C@H]2CC[C@@H](N)CC2)=CC1=O", 6.32),
    ("C=CCSC1=CC(=O)C(NCCCN(C)C)=CC1=O.Cl", 6.04),
]

Per the records, this molecule ( `C=CCSC1=CC(=O)C(NCCNC(C)=O)=CC1=O` ) has pIC50 equal to 5.56

Per the records, this molecule ( `C=CCSC1=CC(=O)C(NCCN2CCNC2=O)=CC1=O` ) has pIC50 equal to 5.66

Per the records, this molecule ( `C=CCSC1=CC(=O)C(NCCCN2CCOCC2)=CC1=O` ) has pIC50 equal to 5.84

Per the records, this molecule ( `C=CCSC1=CC(=O)C(NCCO)=CC1=O` ) has pIC50 equal to 6.14

Per the records, this molecule ( `C=CCSC1=CC(=O)C(NCCP(=O)(OCC)OCC)=CC1=O` ) has pIC50 equal to 6.15

Per the records, this molecule ( `C=CCSC1=CC(=O)C(NCCCCO)=CC1=O` ) has pIC50 equal to 6.34

Per the records, this molecule ( `C=CCSC1=CC(=O)C(N[C@H]2CC[C@H](N)CC2)=CC1=O.Cl` ) has pIC50 equal to 6.65

Per the records, this molecule ( `C=CCSC1=CC(=O)C(N[C@H]2CC[C@H](O)CC2)=CC1=O` ) has pIC50 equal to 6.48

Per the records, this molecule ( `C=CCSC1=CC(=O)C(NCCOCCO)=CC1=O` ) has pIC50 equal to 6.40

Per the records, this molecule ( C=CCSC1=CC(=O)C(NCC(C)O)=CC1=O (stereo not drawn) ) has pIC50 equal to 5.30

Data provenance is ChEMBL document CHEMBL4196043.
